Experiment: growth inhibitors of anaerobic choline-fed gram-negatives, minimal medium, absorbance (AID 1963822)
Conditions: Gram-negative bacterium anaerobic choline minimal medium, measured here: choline growth z-score, timepoint 1, stronger effect = lower value
About 90 (0.2%) of roughly 55,000 compounds were called active. Shown is part of a subset that was picked to be rich in actives.
Mark YES only when z-score stays strictly below 0.2. Values equal to the cut-off are NO.

{"columns": ["molecule", "qualitativeLabel"],
 "data": [
  ["CCc1nc(-c2ccc(C(=O)NCC(=O)Nc3ccc(Cl)cc3)cc2)no1", "YES"],
  ["O=C(NCCc1cnc[nH]1)c1ccc(Cn2c(SCc3ccc(F)cc3)nc3cccnc32)cc1", "YES"],
  ["Cc1ccc(-c2noc(CCn3nc(-c4ccc5c(c4)OCO5)ccc3=O)n2)cc1", "NO"],
  ["COc1cc(OC)cc(C(=O)Nc2nc(CC(=O)Nc3ccc(OC)c(OC)c3)cs2)c1", "YES"],
  ["CCSc1nc2ccc(NS(=O)(=O)Cc3cc(C)ccc3C)cc2s1", "NO"],
  ["COc1cc(C2OC(c3ccccc3)=NN2C(C)=O)ccc1O (stereo unspecified)", "YES"],
  ["CN(CCCNC(=O)c1c2c(nc3ccccc13)C(=O)N(C1CCCCC1)C2)c1ccccc1", "YES"],
  ["CCc1nc2ccccc2c(=O)n1Cc1noc(CN2C(=O)COc3ccccc32)n1", "NO"],
  ["O=C(Nc1ccc(F)cc1)c1ccccn1", "YES"],
  ["Brc1ccc(-c2nn[nH]n2)cc1", "YES"],
  ["O=C(NCc1ccc2c(c1)OCO2)c1ccc(-c2noc(C3CC3)n2)cc1", "NO"]
]}

###

Assay: growth inhibitors of anaerobic choline-fed gram-negatives, minimal medium, absorbance (AID 1963822)
Conditions: Gram-negative bacterium anaerobic choline minimal medium, stronger effect = lower value
The whole screen tested about 55,000 compounds, of which about 90 (0.2%) were called active. This is one part of a sample in which actives are shown more often than they occur.
Mark criterion met for z-score under 0.3, criterion not met if at or over.

{"columns": ["molecule", "qualitativeLabel"],
 "data": [
  ["CC(=O)Nc1ccc(N(C)CCCc2c(C)nn(C)c2C)c(C(=O)O)c1", "criterion not met"],
  ["O=C(NC1CCCc2ccccc21)c1ccc(-c2cc(N3CCOCC3)ncn2)cc1 (stereo unspecified)", "criterion not met"],
  ["O=C1CN(Cc2ccccc2Cl)S(=O)(=O)c2ccccc2N1Cc1cccc(F)c1", "criterion met"],
  ["Cc1ccc(C(C)C)c(OC(C)C(=O)Nc2onc3c2CCCC3)c1 (stereo unspecified)", "criterion met"],
  ["CCC(Sc1nnc(-c2ccccc2NC(C)=O)c(=O)[nH]1)C(=O)Nc1c(C)cc(C)cc1C (stereo unspecified)", "criterion not met"],
  ["COc1ccc(NC(=O)N2CCN(C)c3ncccc32)cc1", "criterion met"],
  ["Cc1ccc(F)c(NS(=O)(=O)c2cc(-c3nc(C(C)(C)C)cs3)cs2)c1", "criterion not met"],
  ["CCCN1C(=O)c2ccccc2Sc2cc(-c3noc(/C=C/c4ccccc4)n3)ccc21", "criterion met"],
  ["CN(C)C(=O)c1cc2c(s1)CCC(C(=O)N(C)C)C2 (stereo unspecified)", "criterion not met"],
  ["CCN1CCN(C(=O)C2CCCN(S(=O)(=O)c3cc(-c4noc(C5CC5)n4)sc3C)C2)CC1 (stereo unspecified)", "criterion not met"],
  ["O=C(c1nnc(-c2ccc(S(=O)(=O)N3CCCC3)cc2)o1)N1CCCC1", "criterion met"],
  ["Cc1ccc(-n2nc(N3CCCN(C(=O)C4CCC4)CC3)ccc2=O)cc1C", "criterion met"],
  ["O=C(COc1ccccc1)Nc1noc(-c2ccccc2)n1", "criterion met"],
  ["O=C(NC1CCCCC1)c1ccc(Cl)c(-n2nnc3cccnc32)c1", "criterion met"],
  ["COc1cccc(CSc2nc3c(-c4ccccc4)c[nH]c3c(=O)[nH]2)c1", "criterion not met"],
  ["O=C(c1cc2cc(Cl)ccc2[nH]1)N1CCCN(c2ccc(=O)n(-c3ccccc3)n2)CC1", "criterion met"],
  ["Cc1nn(-c2ccccc2)c2sc(C(=O)N3CCN(c4cccc(Cl)c4)CC3)cc12", "criterion not met"],
  ["Cc1cn(C)c(CC(=O)NC2CCN(Cc3ccccc3)CC2)c1C(=O)O", "criterion met"],
  ["Cc1ccc2c(c1)OCC(=O)N2CC(=O)O", "criterion met"],
  ["COc1cccc(C2Nc3ccc(Cl)cc3[C@H]3OCCC[C@@H]23)c1OC (stereo partly specified)", "criterion not met"],
  ["CCC(=O)NCCc1nc2cc(NC(=O)C3CCCCC3)ccc2n1C", "criterion met"]
]}

Taken from PubChem BioAssay AID1963822.
